Item-by-item account of melting point

[ask] Please give measured melting point of the following entry: Cc1cccc2c1N(C(=O)c1cc(Cl)nn1-c1ncccc1Cl)C(C(=O)O)N(C(C)C)C2=O (centres unmarked)
[reply] 143 to 190 °C

[ask] Please give measured melting point of the following entry: O=C1c2cc(Cl)cc(Cl)c2N(C(=O)c2cc(Cl)nn2-c2ncccc2Cl)C(c2cccnc2)N1Cl (centres unmarked)
[reply] 135 to 156 °C

[ask] Please give measured melting point of the following entry: "Cc1cc(Cl)cc2c1N(C(=O)c1cc(Cl)nn1-c1ncccc1Cl)CN(C)C2=O"
[reply] 238 to 240 °C

[ask] Please give measured melting point of the following entry: "Cc1cc(Cl)cc2c1N(C(=O)c1cc(Br)nn1-c1ncccc1Cl)CN(C)C2=O"
[reply] 254 to 255 °C

Next compound, please.
[ask] Please give measured melting point of the following entry: "Cc1cc(Cl)cc2c1N(C(=O)c1cc(Cl)nn1-c1ncccc1Cl)CN(C(C)C)C2=O"
[reply] 219 to 220 °C
